# measured_on: T1, LC8 dynein light chain DYNLL1 (residues 1-89) (human (from the printed UniProt …, UniProt P63167 1-89))
# T1 construct: DYNLL1, residues 1-89, UniProt P63167, cloned into pET-15b; The methods name thrombin removal of the His tag only for DYNLL2; also called DYNNL1; source: E. coli BL21(DE3)Star, purified (Ni IMAC, HiTrapQ anion exchange)
# test_summary: ITC; 15 µM DYNLL1 in the cell, 30-40 injections of 3-5 µl peptide; PBS with 3 mM 2-mercaptoethanol, pH 7.4; 299 K; A + B to AB model
# assay_context: both partners purified
Ends that are not written are not given here.

{"binder": "EML3 (8-94), recombinant fragment (domain or fragment, human, UniProt Q32P44 8-94, looked up, also called EMAP-3; source: recombinant) GDGPAREALQSLSQRLRVQEQEMELVKAALAEALRLLRLQVPPSSLQGSGTPAPPGDSLAAPPGLPPTCTPSLVSRGTQTETEVELK", "dH, kcal/mol": -7.74}
{"binder": "Ac-VDKSTQTD (natural consensus extended by Val at position -5; also called Val-5 version of the natural consensus; source: synthetic peptide) [Ac-VDKSTQTD]", "dH, kcal/mol": -15.6}
{"binder": "Ac-VSRGTQTE (also called phage selected consensus; source: synthetic peptide) [Ac-VSRGTQTE, in vitro evolved consensus peptide]", "dH, kcal/mol": -18.1}
{"binder": "Ac-DKSTQTD (also called natural consensus; Ac-5 version of the natural consensus; source: synthetic peptide) [Ac-DKSTQTD, naturally evolved consensus peptide]", "dH, kcal/mol": -11.7}
{"binder": "Ac-SRGTQTE (phage-selected consensus without position -5; also called Ac-5 version of the in vitro evolved consensus; source: synthetic peptide) [Ac-SRGTQTE]", "dH, kcal/mol": -11.6}
{"binder": "Ac-GSRGTQTE (phage-selected consensus with Gly at position -5; also called Gly-5 version of the in vitro evolved consensus; source: synthetic peptide) [Ac-GSRGTQTE]", "dH, kcal/mol": -16.7}
{"binder": "Ac-GDKSTQTD (natural consensus extended by Gly at position -5; also called Gly-5 version of the natural consensus; source: synthetic peptide) [Ac-GDKSTQTD]", "dH, kcal/mol": -16.8}
